Reference source for all entries: patent US9447050B2

Assay remarks: Aqueous solubility (HPLC-UV quantification)
Assay type: physicochemical
Test parameters: water; LLOQ
Reported endpoint: solubility

response.value for COc1cc(/C=C/C(=O)CC(=O)/C=C/c2ccc(O)c(OC)c2)ccc1O [Form I, curcumin] (field: solubility) = < 0.312 µg/mL
